run.conditions: human gut metagenome, 24 h, 2 µM; also: call rule not given here
measurement.label: Bacterial Biotransformation

Q: Need Bacterial Biotransformation, item O=C(NCc1ccccc1)OCCO [BURAMATE]
Result: Compound NOT metabolized

Q: Need Bacterial Biotransformation, item CC(C)(Oc1ccc(CCNC(=O)c2ccc(Cl)cc2)cc1)C(=O)O [BEZAFIBRATE]
Result: Compound metabolized

Q: Need Bacterial Biotransformation, item NC(=O)N1c2ccccc2CC(=O)c2ccccc21 [OXCARBAZEPINE]
Result: Compound NOT metabolized

Q: Need Bacterial Biotransformation, item Cc1nc2n(c(=O)c1CCN1CCC(c3noc4cc(F)ccc34)CC1)CCCC2O (centres undefined)
Result: Compound metabolized

Q: Need Bacterial Biotransformation, item Cc1ccc(S(=O)(=O)NC(=O)NN2CC3CCCC3C2)cc1 (centres undefined) [GLICLAZIDE]
Result: Compound metabolized

Would you be so kind as to report Bacterial Biotransformation for each listed record?
1. CS(=O)(=O)O.OC(CCN1CCCCC1)(c1ccccc1)c1ccccc1 [PRIDINOL METHANESULFONATE]
2. O=C(CCCN1CCC(O)(c2ccc(Cl)cc2)CC1)c1ccc(F)cc1
3. COc1cc2c(c(OC)c1OC)-c1ccc(OC)c(=O)cc1[C@@H](NC(C)=O)CC2
4. Nc1ccc(/N=N/c2ccccc2)c(N)n1

Result:
1. Compound metabolized
2. Compound metabolized
3. Compound metabolized
4. Compound metabolized
